system.name: NLRP3 (Homo sapiens, UniProt Q96P20)
Construct: Seed THP-1 cells (5.56*10^5 cells/mL) containing 1.0 ug/mL LPS; endogenous in cells
Sequence (Q96P20 whole entry): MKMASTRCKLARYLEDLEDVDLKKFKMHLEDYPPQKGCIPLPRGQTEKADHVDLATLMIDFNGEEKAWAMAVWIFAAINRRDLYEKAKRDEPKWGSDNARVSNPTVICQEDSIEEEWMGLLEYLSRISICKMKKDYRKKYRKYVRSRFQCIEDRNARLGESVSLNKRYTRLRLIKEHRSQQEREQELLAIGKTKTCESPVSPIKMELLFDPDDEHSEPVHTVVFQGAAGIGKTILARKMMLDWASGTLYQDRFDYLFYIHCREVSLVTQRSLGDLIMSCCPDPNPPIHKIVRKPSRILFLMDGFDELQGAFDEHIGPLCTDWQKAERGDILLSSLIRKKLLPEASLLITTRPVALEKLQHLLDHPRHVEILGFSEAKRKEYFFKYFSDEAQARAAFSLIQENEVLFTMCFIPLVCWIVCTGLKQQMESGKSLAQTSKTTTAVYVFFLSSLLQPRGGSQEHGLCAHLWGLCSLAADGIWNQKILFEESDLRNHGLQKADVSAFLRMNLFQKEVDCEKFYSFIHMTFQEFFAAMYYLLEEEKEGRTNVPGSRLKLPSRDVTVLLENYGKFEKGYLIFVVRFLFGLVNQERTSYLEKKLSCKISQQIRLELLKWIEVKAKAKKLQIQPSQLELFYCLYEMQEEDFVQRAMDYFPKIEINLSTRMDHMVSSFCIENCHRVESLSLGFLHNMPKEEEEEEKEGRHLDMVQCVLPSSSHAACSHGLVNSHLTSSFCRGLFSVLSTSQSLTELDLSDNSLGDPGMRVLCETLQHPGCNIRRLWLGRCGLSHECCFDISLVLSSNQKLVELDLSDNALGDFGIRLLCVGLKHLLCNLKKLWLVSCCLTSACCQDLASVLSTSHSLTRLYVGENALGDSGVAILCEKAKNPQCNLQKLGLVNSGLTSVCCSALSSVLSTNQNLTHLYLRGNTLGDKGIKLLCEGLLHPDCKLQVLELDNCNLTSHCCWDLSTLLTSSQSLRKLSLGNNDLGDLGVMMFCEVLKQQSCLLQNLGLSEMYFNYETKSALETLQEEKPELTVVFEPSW
test.summary: THP-1 cell assay (LPS priming, nigericin), IL1β release by HTRF; called pyroptosis assay, THP IC50
assay.setup: NLRP3 inhibitory activity; THP-1 cells, 1.0 ug/mL LPS, compound 3 hrs, nigericin 5 uM 1 hr, IL1β in supernatant
pIC50: −log10 of the molar value.
assay.metric: pIC50

*Q* Given Cc1cc2c(c(NC(=O)NS(=O)(=O)c3ccnc(N4CCOCC4)c3)c1-c1ccn3nccc3c1)CCC2 , respond with its pIC50.
*A* ≥ 7.52

*Q* Given CC(C)(O)c1csc(S(=O)(=O)NC(=O)Nc2c(-c3ccnc4c3ccn4C3CCOC3)ccc3c2CCC3)c1 (stereo not drawn) , respond with its pIC50.
*A* 6.52 to 7.52

*Q* Given Cc1cc2c(c(NC(=O)NS(=O)(=O)c3ccn(C4CCC4)n3)c1-c1ccn3nccc3c1)CCC2 , respond with its pIC50.
*A* ≥ 7.52

*Q* Given Cc1cc2c(c(NC(=O)NS(=O)(=O)c3ccnc(C4CCC4)c3)c1-c1ccn3nccc3c1)CCC2 , respond with its pIC50.
*A* 6.52 to 7.52

*Q* Given Cc1cc2c(c(NC(=O)NS(=O)(=O)c3cc(OC4CC4)cnn3)c1-c1ccn3nccc3c1)CCC2 , respond with its pIC50.
*A* ≥ 7.52

*Q* Given Cc1cc2c(c(NC(=O)NS(=O)(=O)c3cc(CN(C)C)n(C4CC4)n3)c1-c1ccn3nccc3c1)CCC2 , respond with its pIC50.
*A* 6.52 to 7.52

*Q* Given Cc1cc2cc(-c3ccc4c(c3NC(=O)NS(=O)(=O)c3cc(C(C)(C)O)cs3)CCC4)ccn2n1 , respond with its pIC50.
*A* ≥ 7.52

*Q* Given Cc1cc2c(c(NC(=O)NS(=O)(=O)c3ccnc(OC4CC4)c3)c1-c1ccn3nccc3c1)CCC2 , respond with its pIC50.
*A* ≥ 7.52

*Q* Given Cn1ccc2cc(-c3ccc4c(c3NC(=O)NS(=O)(=O)c3cc(C(C)(C)O)cs3)CCC4)cnc21 , respond with its pIC50.
*A* 6.52 to 7.52

*Q* Given Cc1cc2c(c(NC(=O)NS(=O)(=O)c3ccn(CC4CC4)n3)c1-c1ccn3nccc3c1)CCC2 , respond with its pIC50.
*A* ≥ 7.52

*Q* Given CC(C)(O)c1csc(S(=O)(=O)NC(=O)Nc2c(-c3ccnc4[nH]ccc34)ccc3c2CCC3)c1 , respond with its pIC50.
*A* ≥ 7.52

*Q* Given Cc1cc2c(c(NC(=O)NS(=O)(=O)c3cncc(OC4CC4)c3)c1-c1ccn3nccc3c1)CCC2 , respond with its pIC50.
*A* ≥ 7.52

*Q* Given Cc1cc2c(c(NC(=O)NS(=O)(=O)c3cncc(N(C)C4CCC4)c3)c1-c1ccn3nccc3c1)CCC2 , respond with its pIC50.
*A* 6.52 to 7.52

*Q* Given CC(C)(O)c1csc(S(=O)(=O)NC(=O)Nc2c(-c3ccc4ccnn4c3)ccc3c2CCC3)c1 , respond with its pIC50.
*A* ≥ 7.52

*Q* Given Cc1cc2c(c(NC(=O)NS(=O)(=O)c3cnn(C4CCC4)c3)c1-c1ccn3nccc3c1)CCC2 , respond with its pIC50.
*A* ≥ 7.52
